- study-system: Schnurri-3 (HIVEP3) mRNA
- experimental-protocol: reduction of Shn3 mRNA levels, dose response, orthogonal assay for Schnurri-3 inhibitor project, Clone20 cells, qPCR, dry powder (AID 720695)
- measurement-conditions: overnight, at 35 µM (top of the series)
Calls of active or inactive are those of the source.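 How the source made its calls: active means compounds lowering Shn3 signal with a fitted half-maximal concentration at most twice the top tested dose; inconclusive means flat curve with 30 to 70% loss, or poor fit; inactive means the rest.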
parameter: Shn3 expression, relative signal

Example results:
O=C1CSc2ccc(C(=O)Nc3cccc(S(=O)(=O)Nc4ccc(Br)cc4)c3)cc2N1 = inactive
COc1ccc(Nc2nc(N3CCCCC3)c3ccccc3n2)cc1 = inactive
CC(=O)Nc1cccc(NC(=O)CSc2ncc(-c3ccc(Cl)cc3)n2Cc2ccco2)c1 = inactive
COc1ccc2c(c1)c(CC(=O)Nc1cc(C)ccc1C)c(C)n2C(=O)c1ccc(Cl)cc1 = inactive
CC(C)(C)NC(=O)CSc1nc2ccc(NC(=O)CSc3nnnn3Cc3ccccc3)cc2s1 = inactive
Cc1cc2c(cc(C(=O)N3CCC(C(=O)NC4CCCC4)CC3)n2Cc2c(F)cccc2Cl)o1 = inactive

Q: For the molecule shown here, "CN(C)c1nc(-c2ccccn2)nnc1-c1ccccc1" , give the reported Shn3 expression, relative signal.
A: inactive

Q: For the molecule shown here, "CCOC(=O)C1CCN(C(=O)c2ccc(OCC(=O)Nc3cccc(C(F)(F)F)c3)c(OC)c2)CC1" , give the reported Shn3 expression, relative signal.
A: inactive

====

- study-system: Schnurri-3 (HIVEP3) mRNA
- experimental-protocol: reduction of Shn3 mRNA levels, dose response, orthogonal assay for Schnurri-3 inhibitor project, Clone20 cells, qPCR, dry powder (AID 720695)
- measurement-conditions: overnight
Listed here: items and their measured AC50.

CN(C(=O)COc1ccccc1C(=O)NCCOc1ccccc1)c1ccccc1 = 26.6 µM
CCOC(=O)c1ccc(NC(=O)Cn2ncc(Cl)c(Cl)c2=O)cc1 = 11.6 µM

Q: For the molecule shown here, "COc1cc(CN2CCc3ccccc3C2)ccc1O" , give the reported AC50.
A: 6.67 µM

Q: For the molecule shown here, "CC(C)[C@H](NC(=O)OC(C)(C)C)c1nnc(S(=O)(=O)Cc2c(F)cccc2Cl)o1" , give the reported AC50.
A: 22.3 µM

Q: For the molecule shown here, O=C(c1nnsc1S(=O)c1ccc(Cl)cc1)N1CCOCC1 (configuration not stated) , give the reported AC50.
A: 13.7 µM

Q: For the molecule shown here, "CCCc1nnc(NC(=O)c2nc(S(=O)(=O)Cc3ccc(C)cc3)ncc2Cl)s1" , give the reported AC50.
A: 28 µM

Q: For the molecule shown here, "COc1ccc(NC(=O)c2nc(S(=O)(=O)Cc3cccc(C)c3)ncc2Cl)c(OC)c1" , give the reported AC50.
A: 8.91 µM

====

- study-system: Schnurri-3 (HIVEP3) mRNA
- experimental-protocol: reduction of Shn3 mRNA levels, dose response, orthogonal assay for Schnurri-3 inhibitor project, Clone20 cells, qPCR, dry powder (AID 720695)
- measurement-conditions: overnight, at 35 µM (top of the series)
The source made the active and inactive calls.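 How the source made its calls: active means compounds lowering Shn3 signal with a fitted half-maximal concentration at most twice the top tested dose; inconclusive means flat curve with 30 to 70% loss, or poor fit; inactive means the rest.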
parameter: Shn3 expression, relative signal

CN(C)S(=O)(=O)c1cccc(NC(=O)c2cccc(S(=O)(=O)N3CCc4ccccc43)c2)c1 = inactive
CN(CC(=O)Nc1cccc(S(=O)(=O)N2CCOCC2)c1)CC(=O)Nc1ccc(Cl)c(C(F)(F)F)c1 = inactive
Cc1ccc2cc(CN(CC3CCCO3)C(=O)NC3CCCCC3)c(=O)[nH]c2c1C (stereo not drawn) = inactive
